meta.source: the supplement of paper PMC10307832

# Tested on: NCI-H1703
# experimental-details: relative viability (nuclei count vs DMSO), 5 days (fraction); higher = more cells survive
# condition-set: first compound 0.04 µM
Entries and their relative viability values follow.
Format: numeric value only, no unit, no commentary.

# annotated cases, reported relative viability shown
Request: Fill in the blank: the reported relative viability of Cc1sc2c(c1C)C(c1ccc(Cl)cc1)=N[C@@H](CC(=O)OC(C)(C)C)c1nnc(C)n1-2 [JQ1] + CS(=O)(=O)CCNCc1ccc(-c2ccc3ncnc(Nc4ccc(OCc5cccc(F)c5)c(Cl)c4)c3c2)o1 [Lapatinib] (partner 2 µM) is ____.
Result: 1.07

Request: Field entry: Cc1sc2c(c1C)C(c1ccc(Cl)cc1)=N[C@@H](CC(=O)OC(C)(C)C)c1nnc(C)n1-2 [JQ1] + COc1cc2c(Oc3ccc(NC(=O)C4(C(=O)Nc5ccc(F)cc5)CC4)cc3F)ccnc2cc1OCCCN1CCOCC1 [Foretinib] (partner 0.25 µM)
Result: 0.298

Request: Field entry: Cc1sc2c(c1C)C(c1ccc(Cl)cc1)=N[C@@H](CC(=O)OC(C)(C)C)c1nnc(C)n1-2 [JQ1] + NC(=O)Nc1cc(-c2cccc(F)c2)sc1C(=O)N[C@H]1CCCNC1 [AZD7762] (partner 0.2 µM)
Result: 0.111

Now consider a different compound.
Request: Fill in the blank: the reported relative viability of Cc1sc2c(c1C)C(c1ccc(Cl)cc1)=N[C@@H](CC(=O)OC(C)(C)C)c1nnc(C)n1-2 [JQ1] + CS(=O)(=O)N1CCN(Cc2cc3nc(-c4cccc5[nH]ncc45)nc(N4CCOCC4)c3s2)CC1 [Pictilisib] (partner 1 µM) is ____.
Result: 0.234
